- systemName: native human MET on living human cells (human, UniProt P08581 25-1390)
- Sequence (P08581 25-1390): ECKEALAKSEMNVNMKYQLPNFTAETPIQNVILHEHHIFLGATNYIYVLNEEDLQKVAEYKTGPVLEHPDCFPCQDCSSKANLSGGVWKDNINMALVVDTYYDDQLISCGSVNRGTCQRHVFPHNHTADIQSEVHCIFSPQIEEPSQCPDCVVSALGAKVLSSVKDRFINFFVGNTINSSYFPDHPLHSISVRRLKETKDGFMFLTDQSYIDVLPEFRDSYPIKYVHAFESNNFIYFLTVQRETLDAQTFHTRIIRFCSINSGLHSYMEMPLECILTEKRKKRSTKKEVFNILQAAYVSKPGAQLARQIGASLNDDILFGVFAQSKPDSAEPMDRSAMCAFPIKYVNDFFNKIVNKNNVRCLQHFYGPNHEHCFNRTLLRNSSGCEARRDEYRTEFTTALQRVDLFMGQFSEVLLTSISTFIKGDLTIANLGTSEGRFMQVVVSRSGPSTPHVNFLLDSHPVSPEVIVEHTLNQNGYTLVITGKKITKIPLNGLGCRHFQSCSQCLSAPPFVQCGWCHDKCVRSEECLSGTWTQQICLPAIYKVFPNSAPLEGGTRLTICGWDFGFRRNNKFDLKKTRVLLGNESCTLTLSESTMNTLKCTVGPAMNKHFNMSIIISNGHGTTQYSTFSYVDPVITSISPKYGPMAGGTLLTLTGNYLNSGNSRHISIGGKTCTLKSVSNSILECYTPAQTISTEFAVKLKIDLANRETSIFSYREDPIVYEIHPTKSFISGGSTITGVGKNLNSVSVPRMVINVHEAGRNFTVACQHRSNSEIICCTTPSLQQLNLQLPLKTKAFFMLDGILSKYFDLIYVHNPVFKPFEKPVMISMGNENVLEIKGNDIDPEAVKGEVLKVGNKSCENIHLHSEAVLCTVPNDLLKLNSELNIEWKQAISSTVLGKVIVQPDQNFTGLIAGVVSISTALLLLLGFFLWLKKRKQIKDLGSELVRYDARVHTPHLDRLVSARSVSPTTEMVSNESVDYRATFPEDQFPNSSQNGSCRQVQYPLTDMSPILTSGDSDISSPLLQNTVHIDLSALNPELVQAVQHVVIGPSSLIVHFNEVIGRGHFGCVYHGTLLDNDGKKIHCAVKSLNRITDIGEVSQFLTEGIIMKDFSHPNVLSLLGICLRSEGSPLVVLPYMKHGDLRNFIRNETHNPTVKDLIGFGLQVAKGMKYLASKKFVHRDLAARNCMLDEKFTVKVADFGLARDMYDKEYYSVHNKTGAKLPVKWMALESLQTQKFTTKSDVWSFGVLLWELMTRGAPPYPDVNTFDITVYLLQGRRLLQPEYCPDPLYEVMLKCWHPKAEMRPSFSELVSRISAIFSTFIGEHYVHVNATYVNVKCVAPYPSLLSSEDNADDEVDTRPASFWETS
- procedureText: cell-based or functional assay
Kindly supply the reported protection from staurosporine, viability EC50, MCF10A values for the records listed here.

What does the data say about its protection from staurosporine, viability EC50, MCF10A? Entry: chimeric llama-human IgG1 mAb 74C8 (antibody, V domains shown) VH: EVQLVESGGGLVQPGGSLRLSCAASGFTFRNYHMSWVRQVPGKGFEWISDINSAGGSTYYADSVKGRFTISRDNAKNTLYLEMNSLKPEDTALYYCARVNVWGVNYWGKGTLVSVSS VL: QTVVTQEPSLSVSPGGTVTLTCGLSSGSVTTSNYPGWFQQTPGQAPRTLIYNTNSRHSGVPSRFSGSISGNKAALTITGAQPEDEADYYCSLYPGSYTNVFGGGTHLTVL
> 32 nM

Which protection from staurosporine, viability EC50, MCF10A is listed for chimeric llama-human IgG1 mAb 71G2 (antibody, V domains shown) VH: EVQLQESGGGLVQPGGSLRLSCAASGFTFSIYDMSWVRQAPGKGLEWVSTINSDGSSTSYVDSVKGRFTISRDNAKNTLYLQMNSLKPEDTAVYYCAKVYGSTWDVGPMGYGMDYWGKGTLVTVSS VL: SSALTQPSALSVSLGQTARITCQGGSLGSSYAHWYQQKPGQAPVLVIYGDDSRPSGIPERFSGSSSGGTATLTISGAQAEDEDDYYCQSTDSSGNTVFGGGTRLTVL ?
1.06 nM

So what's the measured protection from staurosporine, viability EC50, MCF10A for this one? chimeric llama-human IgG1 mAb 72F8 (antibody, V domains shown) VH: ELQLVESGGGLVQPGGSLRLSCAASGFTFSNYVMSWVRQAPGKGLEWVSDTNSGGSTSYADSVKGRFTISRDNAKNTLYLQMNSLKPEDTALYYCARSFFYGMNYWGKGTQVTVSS VL: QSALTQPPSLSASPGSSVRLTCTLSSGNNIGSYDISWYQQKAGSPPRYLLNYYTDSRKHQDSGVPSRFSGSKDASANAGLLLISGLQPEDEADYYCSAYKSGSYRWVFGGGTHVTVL
> 32 nM

Which protection from staurosporine, viability EC50, MCF10A value is on record for chimeric llama-human IgG1 mAb 76H10 (antibody, V domains shown) VH: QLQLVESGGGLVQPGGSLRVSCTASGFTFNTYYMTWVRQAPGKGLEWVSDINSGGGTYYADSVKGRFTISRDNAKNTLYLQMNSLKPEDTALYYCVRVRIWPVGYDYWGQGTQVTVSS VL: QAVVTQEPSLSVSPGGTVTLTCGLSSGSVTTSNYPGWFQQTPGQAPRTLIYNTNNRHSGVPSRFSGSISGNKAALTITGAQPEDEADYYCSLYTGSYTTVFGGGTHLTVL ?
> 32 nM
